Assay: qHTS assay to identify small molecule antagonists of the progesterone receptor (PR) signaling pathway - cell viability counter screen (AID 1346798); note: nearly all actives have a fitted effect of over 50% in size
Conditions: PR-UAS-bla HEK293T viability, CellTiter-Glo luminescence, 16 h; series mostly up to 92.4 µM
Results filed as inconclusive are left out. Calls of active or inactive are those of the source. Calls come from the whole dose curve; as a rule, active = well fitted cell-killing curve with a large enough effect in the repeat runs; inconclusive = weak or mixed curves, or effect the other way; inactive = no such curve, though single readings can be large or run the other way.
Select the matching outcome among active, inactive

Incoming: Record lookup: outcome of this test for c1ccc2sc(SN(C3CCCCC3)C3CCCCC3)nc2c1 ?
Outgoing: inactive

Incoming: Recorded test call requested for C=CCc1ccccc1OCC(O)CNC(C)C (configuration not stated)
Outgoing: inactive

Incoming: Recorded test outcome, item CCCCN1CCCC1C(=O)Nc1c(C)cc(C)cc1C (configuration not stated)
Outgoing: inactive

Incoming: GET /call?item= C=C1c2cccc(O)c2C(O)=C2C(=O)[C@]3(O)C(O)=C(C(N)=O)C(=O)[C@@H](N(C)C)[C@@H]3[C@@H](O)[C@H]12 returns the recorded outcome of this test.
Outgoing: inactive

Incoming: Would you mind telling me which call this test gave NCCNCCO ?
Outgoing: inactive

Incoming: Recorded call for CCCCC(CC)CN (configuration not stated) ?
Outgoing: inactive

Incoming: Kindly provide the recorded test outcome for the following compound: O=C(O)CCc1nc(-c2ccccc2)c(-c2ccccc2)o1
Outgoing: inactive

Incoming: Could you check what this test reported for CCCCCCCC/C=C\CCCCCCCCCCCC(=O)O ?
Outgoing: inactive

Incoming: // param item: CCn1cc(C(=O)O)c(=O)c2cc(F)c(N3CCNCC3)cc21 ; yields the recorded call
Outgoing: inactive

Incoming: Identify the outcome logged in this assay for the compound shown: CCOc1ccc(Cc2nccc3cc(OCC)c(OCC)cc23)cc1OCC
Outgoing: active

Incoming: What did the test return for C=C1C[C@@]23CC[C@H]4[C@@](C)(CCC[C@@]4(C)C(=O)O[C@@H]4O[C@H](CO)[C@@H](O)[C@H](O)[C@H]4O)[C@@H]2CC[C@]1(O[C@@H]1O[C@H](CO)[C@@H](O)[C@H](O[C@@H]2O[C@H](CO)[C@@H](O)[C@H](O)[C@H]2O)[C@H]1O[C@@H]1O[C@H](CO)[C@@H](O)[C@H](O)[C@H]1O)C3 ?
Outgoing: inactive

Incoming: What classification did CC(=O)N/N=C/c1ccc([N+](=O)[O-])o1 end up with in this test?
Outgoing: inactive

###

Experiment: qHTS assay for identifying genotoxic compounds that show differential cytotoxicity against isogenic chicken DT40 cell lines with known DNA damage response pathways - wild type cell line (AID 743012); note: nearly all actives have a fitted effect of over 60% in size
Details: DT40 wild type chicken cells viability, CellTiter-Glo, 40 h; series mostly up to 68.4 µM
Description: U.S. Tox21 Program National Center for Advancing Translational Sciences [NCATS] NIH Chemical Genomics Center [NCGC] U.S. Environmental Protection Agency [EPA] National Institutes of Environmental Health Sciences [NIEHS] National Toxicology Program [NTP] U.S. Food and Drug Administration [FDA] Tox21 Assay Overview: DNA repair pathways play a critical role in cellular homeostasis by repairing DNA damage induced by endogenous processes and xenobiotics. […]
Records with an inconclusive call do not appear. Active and inactive are the calls of the source. Calls come from the whole dose curve; as a rule, active = well fitted cell-killing curve with a large enough effect in the repeat runs; inconclusive = weak or mixed curves, or effect the other way; inactive = no such curve, though single readings can be large or run the other way.
Pick from 1 (yes) (active), 0 (no) (inactive) when you respond.

Incoming: Lab log entry: CN1C(=O)OC(C)(C)C1=O — outcome as called in the assay?
Outgoing: 0 (no)

Incoming: Could you please tell me the result logged for COc1cc(C(=O)NC2CCN(C)CC2)ccc1Nc1ncc2c(n1)N(C1CCCC1)CC(F)(F)C(=O)N2C in this assay?
Outgoing: 1 (yes)

Incoming: Which outcome was assigned to Nc1nnc(-c2ccc([N+](=O)[O-])o2)o1 in this test?
Outgoing: 1 (yes)

Incoming: For CC(C)C(O)(c1ccc(OC(F)(F)F)cc1)c1cncnc1 (stereo not given) , which call appears in the assay record?
Outgoing: 1 (yes)

Incoming: What outcome does the record of this test show for Cc1c(C)c2c(c(C)c1OC(=O)CCC(=O)OCCO)CC[C@@](C)(CCC[C@H](C)CCC[C@H](C)CCCC(C)C)O2 ?
Outgoing: 1 (yes)

Incoming: Which outcome was assigned to CN1C[C@H](C(=O)N[C@]2(C)O[C@@]3(O)[C@@H]4CCCN4C(=O)[C@H](Cc4ccccc4)N3C2=O)C[C@@H]2c3cccc4[nH]cc(c34)C[C@H]21 in this test?
Outgoing: 1 (yes)

Incoming: What was the test verdict on CCOC(=O)c1ccc(I)cc1 ?
Outgoing: 0 (no)

Incoming: For CCCCOc1ccc(OCCCN2CCOCC2)cc1 , what call appears in the results of this test?
Outgoing: 1 (yes)

Incoming: Lab log entry: CCCCCCCCCI — outcome as called in the assay?
Outgoing: 0 (no)

Incoming: How was O=[N+]([O-])c1ccc(Nc2ccc(Nc3ccccc3)c(S(=O)(=O)O)c2)c([N+](=O)[O-])c1 classified in this test?
Outgoing: 0 (no)
